Origin of the recorded values: patent US20040197268A1

Study System: Aβ(1-42) (Homo sapiens)
Construct: Required Aβ(1-42)(California Peptide) was dried from its hexafluoroisopropanol (HFIP) stock solution
Sequence (P05067 672-713 limits assumed): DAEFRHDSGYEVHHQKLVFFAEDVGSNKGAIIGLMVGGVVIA
Method Description: BATYM Assay (Aβ(1-42) aggregation, Thioflavin T fluorescence)
Stated Conditions: Aβ 1-42 final concentration 100 μM, PBS pH 7.4, 37° C., 1 day, ThT fluorescence
The following compounds are listed with their measured IC50 values.

Compound: CCCC1CCN(c2ccc(/C=C3\SC(=S)N(Cc4nnn[nH]4)C3=O)cc2)CC1 [Example 35]
IC50 / nM: 3310
//
Compound: CCCCCCN(C)c1ccc(/C=C2\SC(=S)N(CCS(=O)(=O)NC)C2=O)cc1 [Example 2]
IC50 / nM: 2320
//
Compound: CCCCCCN(C)c1ccc(/C=C2\SC(=S)N(CCNS(=O)(=O)c3ccccc3)C2=O)cc1 [Example 11]
IC50 / nM: 2190
//
Compound: CCCCN(CCCC)c1ccc(/C=C2\SC(=S)N(Cc3cc(=O)c(O)co3)C2=O)cc1 [Example 33]
IC50 / nM: 3030

###

Study System: Aβ(1-42) (Homo sapiens)
Construct: Required Aβ(1-42)(California Peptide) was dried from its hexafluoroisopropanol (HFIP) stock solution
Method Description: BATYM Assay (Aβ(1-42) aggregation, Thioflavin T fluorescence)
Stated Conditions: Aβ 1-42 final concentration 100 μM, PBS pH 7.4, 37° C., 1 day, ThT fluorescence
Kindly apply the following: TRUE if IC50 is less than 2000 nM, FALSE in every other case.

Compound: CCCC1CCN(c2ccc(/C=C3\SC(=S)N(CC(=O)NS(=O)(=O)c4ccc(F)cc4)C3=O)cc2)CC1
Assigned Category: FALSE
--
Compound: CCCCCN(CCCCC)c1ccc(/C=C2\SC(=S)N(CC(=O)NS(C)(=O)=O)C2=O)cc1
Assigned Category: FALSE
--
Compound: O=C(NS(=O)(=O)CCN1C(=O)/C(=C/c2ccc(N3CCC4CCCCC4C3)cc2)SC1=S)c1ccc(F)cc1 (centres unmarked)
Assigned Category: FALSE
--
Compound: CCCCCCN(C)c1ccc(/C=C2\SC(=S)N(CCNC(=O)C(F)(F)F)C2=O)cc1
Assigned Category: FALSE
--
Compound: CCCC1CCN(c2ccc(/C=C3\SC(=S)N(CC(=O)NS(=O)(=O)c4ccccc4)C3=O)cc2)CC1
Assigned Category: FALSE
--
Compound: CCCCCN(CCCCC)c1ccc(/C=C2\SC(=S)N(Cc3nnn[nH]3)C2=O)cc1
Assigned Category: TRUE
--
Compound: CCCCCCN(C)c1ccc(/C=C2\SC(=S)N(CC(=O)NS(C)(=O)=O)C2=O)cc1
Assigned Category: TRUE
--
Compound: CCCCCCN(C)c1ccc(/C=C2\SC(=S)N(CC(=O)NS(=O)(=O)c3ccccc3)C2=O)cc1
Assigned Category: FALSE

###

The following compounds are listed with their measured melting point values.
Result Type: melting point

Compound: CCCCCCN(C)c1ccc(/C=C2\SC(=S)N(CCNS(=O)(=O)C(F)(F)F)C2=O)cc1 [Example 12]
Result Type: melting point
Measured: 170 to 173 °C
//
Compound: CCCCN(CCCC)c1ccc(/C=C2\SC(=S)N(CC(=O)NS(=O)(=O)c3ccccc3)C2=O)cc1 [Example 19]
Result Type: melting point
Measured: 112 to 115 °C
//
Compound: CCCCCN(CCCCC)c1ccc(/C=C2\SC(=S)N(CC(=O)NS(=O)(=O)c3ccc(F)cc3)C2=O)cc1 [Example 27]
Result Type: melting point
Measured: 130 to 132 °C
//
Compound: CCCCN(CCCC)c1ccc(/C=C2\SC(=S)N(CC(=O)NS(=O)(=O)C(F)(F)F)C2=O)cc1 [Example 18]
Result Type: melting point
Measured: 228 to 230 °C
//
Compound: CCCCCN(CCCCC)c1ccc(/C=C2\SC(=S)N(CC(=O)NS(=O)(=O)C(F)(F)F)C2=O)cc1 [Example 8]
Result Type: melting point
Measured: 286 to 288 °C
//
Compound: CCCCCN(CCCCC)c1ccc(/C=C2\SC(=S)N(CC(=O)NS(=O)(=O)c3ccccc3)C2=O)cc1 [Example 22]
Result Type: melting point
Measured: 121 to 123 °C
//
Compound: CCCC1CCN(c2ccc(/C=C3\SC(=S)N(Cc4cc(=O)c(O)co4)C3=O)cc2)CC1 [Example 34]
Result Type: melting point
Measured: 253 °C

###

The following molecules are listed with their measured melting point values.
Counter-ions that a name gives are not always drawn.
Result Type: melting point

Molecule: O=C(CN1C(=O)/C(=C/c2ccc(N3CC[C@@H]4CCCC[C@H]4C3)cc2)SC1=S)NS(=O)(=O)c1ccccc1
Result Type: melting point
Measured: 222 °C
--
Molecule: CCCCCN(CCCCC)c1ccc(/C=C2\SC(=S)N(CCS(=O)(=O)NC(=O)c3ccc(F)cc3)C2=O)cc1
Result Type: melting point
Measured: 195 to 196 °C
--
Molecule: CCCCN(CCCC)c1ccc(/C=C2\SC(=S)N(CCS(=O)(=O)NC(=O)c3ccc(F)cc3)C2=O)cc1
Result Type: melting point
Measured: 191 to 192 °C
--
Molecule: CCCCN(CCCC)c1ccc(/C=C2\SC(=S)N(CCS(=O)(=O)NC(=O)c3ccccc3)C2=O)cc1
Result Type: melting point
Measured: 183 °C
--
Molecule: O=C(NS(=O)(=O)CCN1C(=O)/C(=C/c2ccc(N3CCC4CCCCC4C3)cc2)SC1=S)c1ccc(F)cc1 (stereo not drawn)
Result Type: melting point
Measured: 248 °C
--
Molecule: CCCCCCN(C)c1ccc(/C=C2\SC(=S)N(CCS(=O)(=O)O)C2=O)cc1 (as salt: sodium)
Result Type: melting point
Measured: > 250 °C
--
Molecule: O=C(NS(=O)(=O)CCN1C(=O)/C(=C/c2ccc(N3CCC4CCCCC4C3)cc2)SC1=S)c1ccccc1 (stereo not drawn)
Result Type: melting point
Measured: 213 °C
--
Molecule: CCCCN(CCCC)c1ccc(/C=C2\SC(=S)N(Cc3cc(=O)c(O)co3)C2=O)cc1
Result Type: melting point
Measured: 226 to 227 °C
--
Molecule: CCCCCCN(C)c1ccc(/C=C2\SC(=S)N(CCS(=O)(=O)NC(=O)C(F)(F)F)C2=O)cc1
Result Type: melting point
Measured: 158 to 162 °C
--
Molecule: CCCC1CCN(c2ccc(/C=C3\SC(=S)N(CC(=O)NS(=O)(=O)c4ccccc4)C3=O)cc2)CC1
Result Type: melting point
Measured: 201 °C
--
Molecule: CCCCCCN(C)c1ccc(/C=C2\SC(=S)N(CC(=O)NS(C)(=O)=O)C2=O)cc1
Result Type: melting point
Measured: 227 to 230 °C
--
Molecule: O=C1/C(=C/c2ccc(N3CC[C@@H]4CCCC[C@H]4C3)cc2)SC(=S)N1Cc1nnn[nH]1
Result Type: melting point
Measured: 247 °C
--
Molecule: CCCCCCN(C)c1ccc(/C=C2\SC(=S)N(CC(=O)NS(=O)(=O)C(F)(F)F)C2=O)cc1
Result Type: melting point
Measured: 94 to 97 °C
--
Molecule: O=C(CN1C(=O)/C(=C/c2ccc(N3CC[C@@H]4CCCC[C@H]4C3)cc2)SC1=S)NS(=O)(=O)c1ccc(F)cc1
Result Type: melting point
Measured: 220 to 221 °C
--
Molecule: CCCCN(CCCC)c1ccc(/C=C2\SC(=S)N(CC(=O)NS(=O)(=O)c3ccc(F)cc3)C2=O)cc1
Result Type: melting point
Measured: 125 °C
--
Molecule: CCCCCCN(C)c1ccc(/C=C2\SC(=S)N(CCNC(=O)C(F)(F)F)C2=O)cc1
Result Type: melting point
Measured: 136 to 139 °C
--
Molecule: CCCCCCN(C)c1ccc(/C=C2\SC(=S)N(Cc3nnn[nH]3)C2=O)cc1
Result Type: melting point
Measured: 198 to 200 °C
--
Molecule: CCCCCCN(C)c1ccc(/C=C2\SC(=S)N(CCS(=O)(=O)NC)C2=O)cc1
Result Type: melting point
Measured: 147 to 149 °C
--
Molecule: CCCCCN(CCCCC)c1ccc(/C=C2\SC(=S)N(Cc3nnn[nH]3)C2=O)cc1
Result Type: melting point
Measured: 208 to 210 °C
--
Molecule: CCCCCCN(C)c1ccc(/C=C2\SC(=S)N(CC(=O)NS(=O)(=O)c3ccccc3)C2=O)cc1
Result Type: melting point
Measured: 173 to 177 °C
--
Molecule: CCCCCCN(C)c1ccc(/C=C2\SC(=S)N(CC(=O)NC)C2=O)cc1
Result Type: melting point
Measured: 228 to 230 °C
--
Molecule: CCCCCN(CCCCC)c1ccc(/C=C2\SC(=S)N(CC(=O)NS(C)(=O)=O)C2=O)cc1
Result Type: melting point
Measured: 134 to 138 °C
--
Molecule: CCCC1CCN(c2ccc(/C=C3\SC(=S)N(CC(=O)NS(=O)(=O)c4ccc(F)cc4)C3=O)cc2)CC1
Result Type: melting point
Measured: 197 °C
--
Molecule: CCCC1CCN(c2ccc(/C=C3\SC(=S)N(CC(=O)NS(C)(=O)=O)C3=O)cc2)CC1
Result Type: melting point
Measured: 254 °C
--
Molecule: CCCCCCN(C)c1ccc(/C=C2\SC(=S)N(CCNS(=O)(=O)c3ccccc3)C2=O)cc1
Result Type: melting point
Measured: 152 to 155 °C
--
Molecule: CCCCCCN(C)c1ccc(/C=C2\SC(=S)N(CCNS(C)(=O)=O)C2=O)cc1
Result Type: melting point
Measured: 150 to 153 °C
--
Molecule: CCCCN(CCCC)c1ccc(/C=C2\SC(=S)N(CC(=O)NS(C)(=O)=O)C2=O)cc1
Result Type: melting point
Measured: 219 to 222 °C
